- target_entity: TRPC5 (Homo sapiens)
- Construct: expressed in transfected cells
- Sequence (Q9UL62 1-973): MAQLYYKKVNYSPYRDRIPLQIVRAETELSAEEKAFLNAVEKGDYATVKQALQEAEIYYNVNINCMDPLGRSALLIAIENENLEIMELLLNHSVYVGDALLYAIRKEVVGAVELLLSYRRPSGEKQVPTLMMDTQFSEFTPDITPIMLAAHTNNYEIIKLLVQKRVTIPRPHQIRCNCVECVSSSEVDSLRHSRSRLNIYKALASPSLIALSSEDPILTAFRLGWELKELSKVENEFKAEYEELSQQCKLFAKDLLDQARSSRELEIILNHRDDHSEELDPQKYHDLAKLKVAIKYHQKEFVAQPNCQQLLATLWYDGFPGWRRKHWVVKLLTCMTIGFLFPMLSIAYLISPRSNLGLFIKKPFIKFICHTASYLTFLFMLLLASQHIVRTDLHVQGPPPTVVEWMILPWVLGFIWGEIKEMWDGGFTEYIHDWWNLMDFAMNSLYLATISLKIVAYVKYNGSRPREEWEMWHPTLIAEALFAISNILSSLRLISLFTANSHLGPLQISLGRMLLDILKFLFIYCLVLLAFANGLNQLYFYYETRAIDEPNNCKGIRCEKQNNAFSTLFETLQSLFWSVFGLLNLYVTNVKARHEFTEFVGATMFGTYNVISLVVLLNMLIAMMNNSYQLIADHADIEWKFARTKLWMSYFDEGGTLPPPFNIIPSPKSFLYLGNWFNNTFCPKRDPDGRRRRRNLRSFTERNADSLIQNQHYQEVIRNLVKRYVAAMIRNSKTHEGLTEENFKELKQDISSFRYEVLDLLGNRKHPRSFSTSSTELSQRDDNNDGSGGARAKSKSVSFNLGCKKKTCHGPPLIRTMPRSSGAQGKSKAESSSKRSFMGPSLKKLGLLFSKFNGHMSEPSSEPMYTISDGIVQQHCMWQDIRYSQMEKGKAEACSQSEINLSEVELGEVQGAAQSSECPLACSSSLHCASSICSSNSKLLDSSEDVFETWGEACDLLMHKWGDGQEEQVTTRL
- method_notes: TRPC5 activity assay (FLIPR calcium fluorescence, HEK-TREx hTRPC5 cells)
- Type: cell-based
- settings: HEK-TREx hTRPC5 cells, FLIPR, 30 μM Riluzole stimulation; read-out: TRPC5
parameter: IC50

IC50 reading for N#Cc1cccc(Oc2ncnc3c2CCN(c2cn[nH]c(=O)c2Cl)C3)c1C(F)(F)F : 50 to 500 nM

Further cases:
# compound C[C@@H](O)c1nc2c(c(Oc3ccccc3C(F)(F)F)n1)CCN(c1cn[nH]c(=O)c1Cl)C2 (single isomer, unassigned) ; its IC50 = < 50 nM

What the record says about COc1nc2c(c(Oc3ccc(F)cc3C(F)(F)F)n1)CCN(c1cn[nH]c(=O)c1Cl)C2 : IC50 is 50 to 500 nM

Reported IC50 of CCc1c(F)cccc1Oc1ncnc2c1CCN(c1cn[nH]c(=O)c1Cl)C2 : < 50 nM

Form field IC50, entry C[C@@H]1c2ncnc(Oc3ccc(F)cc3Cl)c2CCN1c1cn[nH]c(=O)c1Cl : 50 to 500 nM

For reference, reported IC50 for C[C@@H](O)c1nc2c(c(Oc3ccc(F)cc3Cl)n1)CCN(c1cn[nH]c(=O)c1Cl)C2 stands at < 50 nM

Entry O=c1[nH]ncc(N2CCc3c(nc(CO)nc3Oc3ccc(F)cc3Cl)C2)c1Cl , IC50 reported as < 50 nM

----------
- target_entity: TRPC5 (Homo sapiens)
- Construct: expressed in transfected cells
- method_notes: TRPC5 activity assay (FLIPR calcium fluorescence, HEK-TREx hTRPC5 cells)
- Format: cell-based
- settings: HEK-TREx hTRPC5 cells, FLIPR, 30 μM Riluzole stimulation; read-out: TRPC5
parameter: IC50

Use these answered entries as a reference point.
Item C[C@H](O)c1nc2c(c(Oc3ccccc3C(F)(F)F)n1)CCN(c1cn[nH]c(=O)c1Cl)C2 (single isomer, unassigned) [Compound 123] was tested on TRPC5 (Homo sapiens); the reported IC50 is 50 to 500 nM

Query O=c1[nH]ncc(N2CCc3c(ncnc3Oc3cnccc3C(F)(F)F)C2)c1Cl [Compound 107] on TRPC5 (Homo sapiens); IC50 returned: < 50 nM

Query Nc1nc2c(c(Oc3ccccc3C(F)(F)F)n1)CCN(c1cn[nH]c(=O)c1Cl)C2 [Compound 102] on TRPC5 (Homo sapiens); IC50 returned: < 50 nM

Result for Nc1nc2c(c(Oc3ccccc3Cl)n1)CCN(c1cn[nH]c(=O)c1Cl)C2 [Compound 113] , tested on TRPC5 (Homo sapiens), IC50: < 50 nM

Reading of IC50 for O=c1[nH]ncc(N2CCc3c(nc(CO)nc3Oc3ccc(F)cc3C(F)F)C2)c1Cl [Compound 134] with TRPC5 (Homo sapiens): < 50 nM

Now examine the next entry.
Tested on TRPC5 (Homo sapiens), the item COc1nc2c(c(Oc3ccccc3C(F)(F)F)n1)CCN(c1cn[nH]c(=O)c1Cl)C2 [Compound 110] showed IC50 equal to 50 to 500 nM

----------
Item-by-item account of IC50
- target_entity: TRPC5 (Homo sapiens)
- Construct: expressed in transfected cells
- method_notes: TRPC5 activity assay (FLIPR calcium fluorescence, HEK-TREx hTRPC5 cells)
- Type: cell-based
- settings: HEK-TREx hTRPC5 cells, FLIPR, 30 μM Riluzole stimulation; read-out: TRPC5

Use these answered entries as a reference point.
For the molecule N#Cc1cccc(Oc2ncnc3c2CCN(c2cn[nH]c(=O)c2Cl)C3)c1Cl [Compound 108] , the measured IC50 on TRPC5 (Homo sapiens) was 50 to 500 nM

Item: O=c1[nH]ncc(N2CCc3c(ccnc3Oc3ccc(F)cc3C(F)(F)F)C2)c1Cl [Compound 120] | System: TRPC5 (Homo sapiens) | IC50: < 50 nM

Log: TRPC5 (Homo sapiens), molecule O=c1[nH]ncc(N2CCc3c(ncnc3Oc3c(F)cccc3C(F)(F)F)C2)c1Cl [Compound 121] , IC50 = < 50 nM

Summary: C[C@H]1CCN(Cc2ccccc2)C[C@H]1N(C)c1ncnc2c1CCN(c1cn[nH]c(=O)c1Cl)C2 [Compound 133a] , TRPC5 (Homo sapiens), IC50 = 500 to 1000 nM

TRPC5 (Homo sapiens) assay, molecule C[C@@H]1CCN(Cc2ccccc2)C[C@@H]1N(C)c1ncnc2c1CCN(c1cn[nH]c(=O)c1Cl)C2 [Compound 133] , recorded IC50 = 50 to 500 nM

The molecule O=c1[nH]ncc(N2CCc3c(nc(NCCO)nc3Oc3ccccc3C(F)(F)F)C2)c1Cl [Compound 115] on TRPC5 (Homo sapiens): IC50 was 50 to 500 nM

Here O=c1[nH]ncc(N2CCc3c(ncnc3N(CCO)c3ccc(F)cc3C(F)(F)F)C2)c1Cl [Compound 136] was tested on TRPC5 (Homo sapiens), and its IC50 came to < 50 nM

The reported TRPC5 (Homo sapiens) IC50 of CN(c1ccc(F)cc1C(F)(F)F)c1cc(=O)n(C)c2c1CCN(c1cn[nH]c(=O)c1Cl)C2 [Compound 127] is 50 to 500 nM

Shift focus to the following entry.
O=c1[nH]ncc(N2CCc3c(nc(CO)nc3Oc3ccccc3C(F)(F)F)C2)c1Cl [Compound 128] tested on TRPC5 (Homo sapiens) gave IC50: < 50 nM

----------
Entries and their IC50
- target_entity: TRPC5 (Homo sapiens)
- Construct: expressed in transfected cells
- method_notes: TRPC5 activity assay (FLIPR calcium fluorescence, HEK-TREx hTRPC5 cells)
- Type: cell-based
- settings: HEK-TREx hTRPC5 cells, FLIPR, 30 μM Riluzole stimulation; read-out: TRPC5

# example entries with known answers
Kindly note the recorded IC50 for O=c1[nH]ncc(N2CCc3c(ncnc3C3(c4ccc(F)cc4C(F)(F)F)CC3)C2)c1Cl [Compound 132] , which is 50 to 500 nM

response.value for CN(c1cnccc1C(F)(F)F)c1ncnc2c1CCN(c1cn[nH]c(=O)c1Cl)C2 [Compound 131] (field: IC50) = < 50 nM

The recorded IC50 for entry Nc1nc2c(c(Oc3ccc(F)cc3Cl)n1)CCN(c1cn[nH]c(=O)c1Cl)C2 [Compound 112] equals < 50 nM

Data point: Cn1c2c(c(Oc3ccc(F)cc3C(F)(F)F)nc1=O)CCN(c1cn[nH]c(=O)c1Cl)C2 [Compound 138] ; IC50 = 50 to 500 nM

Data point: Cc1cc(F)ccc1Oc1ncnc2c1CCN(c1cn[nH]c(=O)c1Cl)C2 [Compound 124] ; IC50 = < 50 nM

Record O=c1[nH]ncc(N2CCc3c(nc(CO)nc3Oc3ccc(F)cc3C(F)(F)F)C2)c1Cl [Compound 125] . Reported IC50: < 50 nM

Sure, the documented IC50 for O=c1[nH]ncc(N2CCc3c(Oc4ccc(F)cc4C(F)(F)F)ccnc3C2)c1Cl [Compound 140] is 50 to 500 nM

Entry O=c1[nH]ncc(N2CCc3c(ncnc3Oc3ccc(F)cc3C(F)F)C2)c1Cl [Compound 105] ; IC50 = < 50 nM

More entries:
Briefly, IC50 measured for O=c1[nH]ncc(N2CCc3c(ncnc3Oc3ccccc3Cl)C2)c1Cl [Compound 101] : < 50 nM

Please fill in: IC50 reported for O=c1[nH]ncc(N2CCc3c(ncnc3Oc3ccccc3C(F)F)C2)c1Cl [Compound 103] = < 50 nM

Field IC50 (entry Nc1nc2c(c(Oc3ccc(F)cc3C(F)(F)F)n1)CCN(c1cn[nH]c(=O)c1Cl)C2 [Compound 116] ) reads < 50 nM

Sourced from patent US20220152031A1
